System: ATP phosphoribosyltransferase (HisG)
Assay: Degree of inhibition by L-histidine on activities of ATP phosphoribosyltransferase variants
Format: biochemical, Corynebacterium glutamicum
Settings: L-histidine 50 mM
reported.endpoint: Activity of Enzyme, 50 mM L-histidine (U/mg)

molecule	endpoint.result
HisG (N215K/L231F/T235A): known HisG variant N215K/L231F/T235A (Biochimie. 2012 March; 94(3):829-38) (protein) MLKIAVPNKGSLSERAMEILAEAGYAGRGDSKSLNVFDEANNVEFFFLRPKDIAIYVAGGQLDLGITGRDLARDSQADVHEVLSLGFGSSTFRYAAPADEEWSIEKLDGKRIATSYPNLVRDDLAARGLSAEVLRLDGAVEVSIKLGVADAIADVVSTGRTLRQQGLAPFGEVLCTSEAVIVGRKDEKVTPEQQILLRRIQGILHAQNFLMLDYKVDRDNLDAATAVTPGFSGPAVSPLARDNWVAVRAMVPRRSANAIMDKLAGLGAEAILASEIRIARI	0.202
